assay: protein stability index of a GFP-peptide fusion (yeast GPS) (PSI 1-4); higher = more stable; sorted into four equal gates, so the index is relative within each strain; settings: san1∆
# label = fulfilled if protein stability index >= 2 else not fulfilled

Task item: Decide: protein stability index of EVTFKNANIFSSVKCFG [FAS1] >= 2?
Reply: fulfilled

Task item: Check this sequence for protein stability index at or above 2: EWYLSHLCSGILSSVNR [SRB8]
Reply: not fulfilled

Task item: I'd appreciate it if you could say whether ELPKKLLNLPPFQVSSF [SRB8] has protein stability index at least equal to 2.
Reply: not fulfilled

Task item: Exam item: decide whether the reported protein stability index for VTKILPHLIIQNHNSKS [IRR1] is at least 2.
Reply: not fulfilled

Task item: Determine whether this sequence has protein stability index no lower than 2: NEIIRSLSDEVMRNEIR [SIR4]
Reply: fulfilled

Task item: Kindly determine if protein stability index recorded for QGPIVADKNCAKLHRIS [PUP1] is above or exactly 2.
Reply: fulfilled

Task item: # bool: protein stability index of DTRSTQGPIVADKNCAK [PUP1] >= 2
Reply: fulfilled

Task item: Check if protein stability index >= 2 (inclusive). Item: GIIEPSLKALASKYNCD [RPL40A]
Reply: fulfilled

Task item: Answer whether protein stability index of SILGKFCPIVEEIVSNS [YCS4] is greater than or equal to 2.
Reply: not fulfilled

Task item: Would you say IQWYKSLLEKDIDAVNG [ISW2] shows protein stability index at minimum 2?
Reply: fulfilled

Task item: Textbook exercise: given the entry VLGNSRGVDAGKGNTFE [RPN14] , state whether its protein stability index is greater than or equal to 2.
Reply: fulfilled

Task item: Evaluate SIFAMGLCGAGTNNARL [RPN1] : protein stability index at minimum 2?
Reply: not fulfilled

Task item: Test whether the sequence RNTYQSAMGKQAMGVFL [RPB2] records protein stability index of 2 or higher.
Reply: not fulfilled

Task item: Decide: is the reported value of protein stability index for TKDIFPLQNIHVRKVKL [RPS1A] equal to or greater than 2?
Reply: fulfilled

Task item: API: above_or_equal(metric=protein stability index, cutoff=2) for item NSIDINYKGLPKKYKEN [SMC1]
Reply: fulfilled

Task item: Entry ENGDYAACEKLLPPIKI [RPN12] : is its protein stability index no less than 2?
Reply: not fulfilled

Task item: Tell me whether protein stability index is at least 2 here: AADNLGSYGSLLRFNGV [PRE4]
Reply: fulfilled

Task item: Given ISTPIINAVLVNDNDER [RPO31] , state whether its protein stability index is at least 2.
Reply: fulfilled

Task item: Please check the record RQIRPIMERIKSSLSLR [ITC1] and state if its protein stability index is at or above 2.
Reply: not fulfilled

Task item: Identify whether the reported protein stability index of the following sequence is 2 or greater: TSPGFGVSSPGFSPTSP [RPO21]
Reply: fulfilled

Task item: Check this sequence for protein stability index at or above 2: IITKNENFLKEVFQLRI [GAL11]
Reply: not fulfilled

Task item: Decide: is the reported value of protein stability index for GTCNGDITTSIMDNFLE [RPN1] equal to or greater than 2?
Reply: fulfilled

Task item: Could you verify whether the entry PLGVILTFVSVDEELGP [SCL1] shows protein stability index of no less than 2?
Reply: fulfilled

Task item: Hi team, for KSYASLLAQLNGTVNNN [RPT3] , is the recorded protein stability index at or above 2?
Reply: fulfilled

Task item: Does the reported protein stability index for KFGYILCVLDYDNIDIQ [RPB7] fall at or above the 2 mark?
Reply: fulfilled

Task item: Does FEKKELQEKFLNQIATL [IRR1] have a reported protein stability index of at least 2?
Reply: not fulfilled

Task item: // inclusive: protein stability index at least 2? input: NGMFCQVPSSLIVRAKN [RRP4]
Reply: fulfilled

Task item: Tell me whether protein stability index is at least 2 here: ILNDIETLEHNPVALEQ [BRR2]
Reply: fulfilled

Task item: Textbook exercise: given the entry RADIVRNIILEARFDVL [ISW2] , state whether its protein stability index is greater than or equal to 2.
Reply: fulfilled

Task item: # bool: protein stability index of RFNHLVTRLFFICSIIQ [YML031W/NDC1] >= 2
Reply: not fulfilled

Task item: Decide: protein stability index of FVSSGFDTSIKLDIISD [RPN14] >= 2?
Reply: fulfilled

Task item: Answer whether protein stability index of TKVNNQLIKVAVHNGDR [RPL9B] is greater than or equal to 2.
Reply: not fulfilled

Task item: Reported protein stability index at or above 2? ARWPAKSVKFVQGLLQN [RPL17A]
Reply: not fulfilled

Task item: Hello, I need to know if SEEINQYVTQIEQEKQE [PRE6] has measured protein stability index not below 2. Thanks!
Reply: fulfilled

Task item: Is reported protein stability index greater than or equal to 2 here: KISNSKLLSLLRSKTSA [SIR4]
Reply: fulfilled

Task item: hey, is protein stability index for this one >= 2? KTIEVTAEINCFMHLLV [RPN3]
Reply: not fulfilled

Task item: Would you say VINLKQIAKFVVGLGER [RPT1] shows protein stability index at minimum 2?
Reply: fulfilled

Task item: Determine whether this sequence has protein stability index no lower than 2: SPDQMRNLQMGLRNQNM [GRR1]
Reply: fulfilled

Task item: Hi team, for VPGMPAPIKKIIERYIK [PRP8] , is the recorded protein stability index at or above 2?
Reply: fulfilled

Task item: // inclusive: protein stability index at least 2? input: KRSTVPLNDGFVDLVEH [YML103C/NUP188]
Reply: fulfilled

Task item: Reported protein stability index at or above 2? VPDSKIRIYDLGKKKAT [RPL10]
Reply: not fulfilled

Task item: Is it the case that IQDSNGDVKNMEDVKIQ [SWI3] has protein stability index reaching or exceeding 2?
Reply: fulfilled

Task item: Given the entry KYLLTQRVFKPVDITMM [PRP8] , answer whether its protein stability index meets or surpasses 2.
Reply: fulfilled

Task item: Reported protein stability index at or above 2? AIRKNGQIDFWYQFSNS [SIN4]
Reply: not fulfilled

Task item: Evaluate GGRMFAPTKTWRKWNVK [RPL4A] : protein stability index at minimum 2?
Reply: fulfilled

Task item: Please check the record RSKFGGDFLDFQVHERL [ARP7] and state if its protein stability index is at or above 2.
Reply: fulfilled

Task item: Could you verify whether the entry GGLTKQIKEIKEVIELP [RPT6] shows protein stability index of no less than 2?
Reply: fulfilled

Task item: Assess whether reported protein stability index for QKTVNLKNIMKVSDPYV [RPN4] sits at 2 or higher.
Reply: fulfilled

Task item: Does the reported protein stability index for PTPVVTISEKEQDILDL [SSN2] fall at or above the 2 mark?
Reply: fulfilled

Task item: Exam item: decide whether the reported protein stability index for AADVSAVDAKQLAQIRQ [YML103C/NUP188] is at least 2.
Reply: fulfilled

Task item: Tell me whether protein stability index is at least 2 here: ISLRNNMFELAQQLVGV [SMC4]
Reply: not fulfilled

Task item: Confirm if protein stability index reported for the sequence SNEICDLAYQYVRALEL [SRB2] is 2 or above.
Reply: fulfilled

Task item: Reported protein stability index reaches at least 2 for SSGFNEDIVGALRRRVG [REC8] ?
Reply: not fulfilled

Task item: Quick check: does SKKISNTAAALVSLLDE [YAR002W/NUP60] have protein stability index greater than or equal to 2?
Reply: fulfilled

Task item: Does SFSLTVSKEQFLKDADV [YJL039C/NUP192] have a reported protein stability index of at least 2?
Reply: not fulfilled

Task item: Given the entry PAGFTHKLSNWLFGWND [YDL088C/ASM4] , answer whether its protein stability index meets or surpasses 2.
Reply: fulfilled

Task item: Exam item: decide whether the reported protein stability index for VHTANFSERGSNTRTMT [MED2] is at least 2.
Reply: fulfilled

Source of measurements: the supplement of paper PMC9732359
